- Test system: goosegrass (Eleusine indica)
- experiment.description: Test B pre-/postemergence plant response
- Format: in vivo
- study.conditions: Preemergence, 31 g ai/ha; 0 to 100 scale, 0 no effect, 100 complete control
reported.property: Plant response rating, Goosegrass
# print the numeric value only

INSERT INTO results (compound_smiles, reported_property, measured) VALUES
  ('CCc1cc(-c2ccc(Cl)cc2)nn1-c1c(OC(=O)C(C)(C)C)cnn(C)c1=O', 'Plant response rating, Goosegrass', 100),
  ('Cc1cc(-c2ccc(Br)cc2)nn1-c1c(O)cnn(C)c1=O', 'Plant response rating, Goosegrass', 85),
  ('Cc1cc(-c2ccc(Cl)cc2)nn1-c1c(OS(C)(=O)=O)cnn(C)c1=O', 'Plant response rating, Goosegrass', 100),
  ('COC(=O)Oc1cnn(C)c(=O)c1-n1nc(-c2ccc(Cl)cc2)cc1C', 'Plant response rating, Goosegrass', 98),
  ('CCc1cc(-c2ccc(Cl)cc2)nn1-c1c(OS(C)(=O)=O)cnn(C)c1=O', 'Plant response rating, Goosegrass', 100);

Please find the next compound below.
Any idea what Plant response rating, Goosegrass was measured for `Cc1cc(-c2ccc(Cl)cc2)nn1-c1c(OC(=O)C(C)C)cnn(C)c1=O` ?
98

###

- Test system: barnyardgrass (Echinochloa crus-galli)
- experiment.description: Test E pre-/postemergence plant response
- Type: in vivo
- study.conditions: 62 g ai/ha, Preemergence, scale 0 to 100
- Source text: […] Treated plants and controls were maintained in a greenhouse for 14 to 21 days, after which time all species were compared to controls and visually evaluated. […]
Measured Plant response rating, Barnyardgrass, listed per entry for reference.
Reply with the value as a number alone.

INSERT INTO assay_data (compound, reported_property, measured) VALUES
  ('CCc1cc(-c2ccc(Cl)cc2)nn1-c1c(OC(=O)C(C)(C)C)cnn(C)c1=O [Compound 40]', 'Plant response rating, Barnyardgrass', 100),
  ('Cn1ncc(O)c(-c2nn(-c3ccc(Cl)cc3)cc2Br)c1=O [Compound 31]', 'Plant response rating, Barnyardgrass', 90),
  ('Cc1cc(-c2ccc(Cl)cc2)nn1-c1c(OS(C)(=O)=O)cnn(C)c1=O [Compound 36]', 'Plant response rating, Barnyardgrass', 100);

Write down the reported Plant response rating, Barnyardgrass of COC(=O)Oc1cnn(C)c(=O)c1-n1nc(-c2ccc(Cl)cc2)cc1C [Compound 33] , test system: barnyardgrass (Echinochloa crus-galli).
100

###

- Tested on: corn (Zea mays)
- experiment.description: Test A pre-/postemergence plant response
- Type: in vivo
- study.conditions: Postemergence, 125 g ai/ha; 0 to 100 scale, 0 no effect, 100 complete control
Measured Plant response rating, Corn accompanies every entry in the list below.

Below are worked cases with known answers.
INSERT INTO measurements (compound, reported_property, measured) VALUES
  ('Cc1cc(-c2ccc(Br)cc2)nn1-c1c(OC(=O)OC(C)C)cnn(C)c1=O [Compound 6]', 'Plant response rating, Corn', 100),
  ('Cc1cc(-c2ccc(Cl)cc2)nn1-c1c(OC(=O)OCC(C)C)cnn(C)c1=O [Compound 57]', 'Plant response rating, Corn', 60),
  ('Cn1ncc(O)c(-c2nn(-c3ccc(C(F)(F)F)cc3)cc2Cl)c1=O [Compound 88]', 'Plant response rating, Corn', 50),
  ('CCc1cc(-c2ccc(C(F)(F)F)cc2)nn1-c1c(OC(=O)C2CCCCC2)cnn(C)c1=O [Compound 95]', 'Plant response rating, Corn', 100),
  ('Cn1ncc(O)c(-c2nn(-c3ccc(Cl)cc3)cc2Cl)c1=O [Compound 28]', 'Plant response rating, Corn', 40);

// map CCc1cc(-c2ccc(Br)cc2)nn1-c1c(O)c(OC)nn(C)c1=O [Compound 89] to recorded Plant response rating, Corn (system: corn (Zea mays))
100

###

- Test system: wild oat (Avena fatua)
- experiment.description: Test B pre-/postemergence plant response
- Assay type: in vivo
- study.conditions: Postemergence, 31 g ai/ha; scale 0 to 100, 0 no effect, 100 complete control
reported.property: Plant response rating, Oat, Wild

Reference set (3 entries):
INSERT INTO assay_data (compound_smiles, reported_property, measured) VALUES
  ('CCc1cc(-c2ccc(F)cc2)nn1-c1c(O)cnn(C)c1=O', 'Plant response rating, Oat, Wild', 70),
  ('Cn1ncc(O)c(-c2nn(-c3ccc(Cl)cc3)cc2Cl)c1=O', 'Plant response rating, Oat, Wild', 95),
  ('CCc1cc(-c2ccc(Cl)c(Cl)c2)nn1-c1c(O)cnn(C)c1=O', 'Plant response rating, Oat, Wild', 90);

I am curious: what Plant response rating, Oat, Wild value has been reported for `Cc1cc(-c2ccc(Br)cc2)nn1-c1c(OC(=O)OC(C)C)cnn(C)c1=O` ?
100

Could you share which Plant response rating, Oat, Wild value was measured for `CCc1cc(-c2ccc(Cl)cc2)nn1-c1c(OC(=O)OC(C)C)cnn(C)c1=O` ?
100

###

- Tested on: catchweed bedstraw (Galium aparine)
- experiment.description: Test B pre-/postemergence plant response
- Format: in vivo
- study.conditions: Preemergence, 62 g ai/ha; scale 0 to 100
reported.property: Plant response rating, Galium
Answer as a number with no unit attached.

INSERT INTO measurements (compound_smiles, measured) VALUES
  ('COC(=O)Oc1cnn(C)c(=O)c1-n1nc(-c2ccc(Cl)cc2)cc1C', 0);

What value of Plant response rating, Galium has been recorded for this entry: `Cc1cc(-c2ccc(Br)cc2)nn1-c1c(O)cnn(C)c1=O`
0

Report Plant response rating, Galium for `CCc1cc(-c2ccc(Cl)c(Cl)c2)nn1-c1c(O)cnn(C)c1=O` please.
100

What does the record list as Plant response rating, Galium for `CCc1cc(-c2ccc(Cl)cc2)nn1-c1c(OC(=O)C(C)(C)C)cnn(C)c1=O` ?
0

Query (compound): `Cc1cc(-c2ccc(C(F)(F)F)cc2)nn1-c1c(OC(=O)C(C)(C)C)cnn(C)c1=O` ; field requested: Plant response rating, Galium
100

###

- Tested on: green foxtail (Setaria viridis)
- experiment.description: Test B pre-/postemergence plant response
- Assay type: in vivo
- study.conditions: Postemergence, 31 g ai/ha; scale 0 to 100, 0 no effect, 100 complete control
reported.property: Plant response rating, Foxtail, Green
// return just the number, without any unit appended

Solved cases (3 shown):
INSERT INTO measurements (molecule, reported_property, measured) VALUES
  ('CCc1cc(-c2ccc(Cl)c(Cl)c2)nn1-c1c(O)cnn(C)c1=O [Compound 20]', 'Plant response rating, Foxtail, Green', 85),
  ('Cc1cc(-c2ccc(Cl)cc2)nn1-c1c(OS(C)(=O)=O)cnn(C)c1=O [Compound 36]', 'Plant response rating, Foxtail, Green', 60),
  ('CCc1cc(-c2ccc(C(F)(F)F)cc2)nn1-c1c(OS(C)(=O)=O)cnn(C)c1=O [Compound 19]', 'Plant response rating, Foxtail, Green', 100);

Which Plant response rating, Foxtail, Green value is on record for CCc1cc(-c2ccc(Cl)cc2)nn1-c1c(OS(C)(=O)=O)cnn(C)c1=O [Compound 39] ?
85

###

Each entry below carries its recorded Corn plant response rating (crop injury, 0 = no effect, 100 = complete kill) at 125 g/ha.
- Tested on: corn (Zea mays)
- experiment.description: Test A pre-/postemergence plant response
- Format: in vivo
- study.conditions: Zea mays, post-emergence, 240 h; Postemergence, 125 g ai/ha; 0 to 100 scale, 0 no effect, 100 complete control

INSERT INTO measurements (compound, measured) VALUES
  ('Cc1nn(C)c(=O)c(-n2nc(-c3ccc(C(F)(F)F)cc3)cc2C)c1O [Compound 75]', '90%'),
  ('CCc1cc(-c2ccc(C(F)(F)F)cc2)nn1-c1c(O)cnn(C)c1=O [Compound 11]', '90%'),
  ('CCc1c(C)c(-c2ccc(Cl)cc2)nn1-c1c(O)cnn(C)c1=O [Compound 26]', '60%');

What value of measured Corn plant response rating (crop injury, 0 = no effect, 100 = complete kill) at 125 g/ha is listed for Cc1cc(-c2ccc(Br)cc2)nn1-c1c(O)cn[nH]c1=O [Compound 78] ?
100%

###

# maps each entry to its Plant response rating, Wheat, Spring
- Tested on: spring wheat (Triticum aestivum)
- experiment.description: Test C pre-/postemergence plant response
- Assay type: in vivo
- study.conditions: Preemergence, 16 g ai/ha; scale 0 to 100 (0 no effect, 100 complete control)
Answer field: number only, no words.

Example entries begin here.
INSERT INTO assay_data (compound_smiles, target_entity, measured) VALUES
  ('CCc1cc(-c2ccc(C(F)(F)F)cc2)nn1-c1c(O)cnn(C)c1=O', 'spring wheat (Triticum aestivum)', 60),
  ('C#CCOC(=O)Oc1cnn(C)c(=O)c1-n1nc(-c2ccc(Cl)cc2)cc1C', 'spring wheat (Triticum aestivum)', 50);

Continue with the compound presented below.
Request the reported Plant response rating, Wheat, Spring associated with `Cc1cc(-c2ccc(Cl)cc2)nn1-c1c(OC(=O)OCC(C)C)cnn(C)c1=O`
20
